Field: viability. Provide a value for each of the molecules that follow.
- procedure.summary: growth inhibitors of H69AR lung tumor, primary screen, human, duplicate replicates (AID 580);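 also: 100% = mean luminescence of untreated wells and 0% = no signal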
- study.conditions: H69AR lung tumor cells viability, ATP luminescence, 72 h; at 10 µM; stronger effect = lower value
The source made the active and inactive calls.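 The calls were made as follows: active = viability at or under a set limit in both replicates, limit being median viability minus 3 SD (cut at about 48% in these data, passing the limit was not always enough); inconclusive = at or under the limit in just one replicate; inactive = at or above the limit in both replicates.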

Inquiry: Please give the measured viability for this molecule: CCOc1ccccc1N1C(=O)CC(Sc2ncccc2C(=O)O)C1=O (stereo not given)
Reply text: 99.9% (inactive)

Inquiry: Please give the measured viability for this molecule: "C=CCn1c(SCC(=O)c2ccccc2)nnc1-c1ccc2c(c1)OCO2"
Reply text: 100% (inactive)

Inquiry: Please give the measured viability for this molecule: "CSc1nc(N2CCOCC2)c2c(c1C#N)CCCCC2"
Reply text: 86.8% (inactive)

Inquiry: Please give the measured viability for this molecule: "CC(=O)Oc1ccc(C(c2ccc(OC(C)=O)cc2)c2ccccn2)cc1"
Reply text: 94.9% (inactive)

Inquiry: Please give the measured viability for this molecule: CC(C)CC1NC(=O)N(CC(=O)N2CCN(S(=O)(=O)c3ccc(Cl)cc3)CC2)C1=O (stereo not given)
Reply text: 96.4% (inactive)

Inquiry: Please give the measured viability for this molecule: CCCNC(=O)C1CN(S(=O)(=O)c2ccccc2)CCN1S(=O)(=O)c1ccccc1 (stereo not given)
Reply text: 99.2% (inactive)

Inquiry: Please give the measured viability for this molecule: "c1ccc2c(-c3nc(-c4ccncc4)no3)cccc2c1"
Reply text: 102% (inactive)

Inquiry: Please give the measured viability for this molecule: "Cc1ccc(Nc2nc(CSc3nnc(-c4cccs4)o3)cs2)cc1"
Reply text: 90.5% (inactive)

Inquiry: Please give the measured viability for this molecule: C=CCNC(=O)C1CC(=O)N(c2ccc(OCC(=O)Nc3ccc(OC)cc3)cc2)C1 (stereo not given)
Reply text: 108% (inactive)

Inquiry: Please give the measured viability for this molecule: "O=S(=O)(c1cccc(S(=O)(=O)N2CCC(N3CCCCC3)CC2)c1)N1CCOCC1"
Reply text: 93.6% (inactive)

----------
- procedure.summary: reversal of MRP1-mediated doxorubicin resistance, pilot screen, H69AR cells, doxorubicin co-treatment (AID 601)
- study.conditions: H69AR cells, CellTiter-Glo, 72 h; compound alone cytotoxicity; at 10 µM
measurement.kind: viability (%)
Give your result in % as a bare value.

Inquiry: Please give the measured viability for this compound: "O=C(CN1CCCN(S(=O)(=O)c2ccc(Br)cc2)CC1)Nc1ccc2c(c1)OCO2"
Reply text: 6.58

Inquiry: Please give the measured viability for this compound: "O=C(N1CCN(c2ccccc2F)CC1)C12CC3CC(CC(C3)C1)C2"
Reply text: 89.9

Inquiry: Please give the measured viability for this compound: C=C(C)C1Cc2c(C)nn(-c3nc(C)cc(C)n3)c2C1 (stereo unspecified)
Reply text: 52.3

Inquiry: Please give the measured viability for this compound: "COc1ccc(-c2nnc(-c3ccc(N)cc3)o2)cc1"
Reply text: 88.3

Inquiry: Please give the measured viability for this compound: "O=C(Nc1ccon1)c1cccc(S(=O)(=O)N2CCCC2)c1"
Reply text: 87.8

Inquiry: Please give the measured viability for this compound: NC(CO)C(=O)NNCc1ccc(O)c(O)c1O (stereo unspecified)
Reply text: 98.7

Inquiry: Please give the measured viability for this compound: COCCN(C(=O)CNC(=O)c1ccco1)C(C(=O)NC1CCCCC1)c1cccc(OC)c1 (stereo unspecified)
Reply text: 102

Inquiry: Please give the measured viability for this compound: "Cc1cc(C(=O)Nc2cccnc2)no1"
Reply text: 98.3

Inquiry: Please give the measured viability for this compound: O=C(O)C1CCCCC1C(=O)Nc1ccccn1 (stereo unspecified)
Reply text: 108

Inquiry: Please give the measured viability for this compound: "CSc1ccccc1NC(=O)CN(Cc1ccccc1)S(C)(=O)=O"
Reply text: 93.1

Inquiry: Please give the measured viability for this compound: CC(=O)Nc1ccc(NC(=O)Cn2cc3c(n2)CCC(C)C3)cc1 (stereo unspecified)
Reply text: 90.6
